test system: 996289-038-R-J1-PDC spheroid viability; assay: Anticancer human tumor 996289-038-R-J1-PDC patient-derived colon adenocarcinoma cell line growth inhibition [PI3K]; details: second compound 0.0316 µM; first compound 0.1 µM; active compounds read low; spheroids with HUVEC and MSC;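 note: luminescence used as a proxy for viable cell amount; spheroids exposed to compounds for seven days before viability read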
Mark YES for viability, T/C under 80%, NO if at or over.

- compound: "CCCS(=O)(=O)Nc1ccc(F)c(C(=O)c2c[nH]c3ncc(-c4ccc(Cl)cc4)cc23)c1F + CC(Nc1ccc2c(c1)OCCn1cc(N3C(=O)OCC3C(F)F)nc1-2)C(N)=O"
  class label: "NO"
- compound: "CC(C)NCC(C(=O)N1CCN(c2ncnc3c2C(C)CC3O)CC1)c1ccc(Cl)cc1 (stereo unspecified) + CC(Nc1ccc2c(c1)OCCn1cc(N3C(=O)OCC3C(F)F)nc1-2)C(N)=O"
  class label: "NO"
- compound: "Cn1ncc(Cl)c1-c1cc(C(=O)NC(CN)Cc2cccc(F)c2)sc1Cl (stereo unspecified) + CC(Nc1ncnc2nc[nH]c12)c1cc2cccc(Cl)c2c(=O)n1-c1ccccc1"
  class label: "NO"
- compound: "C#Cc1c(F)ccc2cc(O)cc(-c3ncc4c(N5CC6CCC(C5)N6)nc(OCC56CCCN5CC(F)C6)nc4c3F)c12 (stereo unspecified) + Cc1nc(NC(=O)N2CCCC2C(N)=O)sc1-c1ccnc(C(C)(C)C(F)(F)F)c1"
  class label: "YES"
- compound: "Cn1ncc(Cl)c1-c1cc(C(=O)NC(CN)Cc2cccc(F)c2)sc1Cl (stereo unspecified) + CC(Nc1ccc2c(c1)OCCn1cc(N3C(=O)OCC3C(F)F)nc1-2)C(N)=O"
  class label: "NO"
- compound: "CC(C)n1nc(-c2ccc3oc(N)nc3c2)c2c(N)ncnc21 + Cc1nc(NC(=O)N2CCCC2C(N)=O)sc1-c1ccnc(C(C)(C)C(F)(F)F)c1"
  class label: "YES"
